# TESTED_ON: T1, human LAG-3 (human, UniProt P18627 23-450, limits assumed)
# T1 construct: Selections used human LAG-3-Fc, human LAG-3-6His, a 30 aa LAG-3 peptide and/or cells with cynomolgus LAG-3; also called CD223
# T1 sequence (looked up): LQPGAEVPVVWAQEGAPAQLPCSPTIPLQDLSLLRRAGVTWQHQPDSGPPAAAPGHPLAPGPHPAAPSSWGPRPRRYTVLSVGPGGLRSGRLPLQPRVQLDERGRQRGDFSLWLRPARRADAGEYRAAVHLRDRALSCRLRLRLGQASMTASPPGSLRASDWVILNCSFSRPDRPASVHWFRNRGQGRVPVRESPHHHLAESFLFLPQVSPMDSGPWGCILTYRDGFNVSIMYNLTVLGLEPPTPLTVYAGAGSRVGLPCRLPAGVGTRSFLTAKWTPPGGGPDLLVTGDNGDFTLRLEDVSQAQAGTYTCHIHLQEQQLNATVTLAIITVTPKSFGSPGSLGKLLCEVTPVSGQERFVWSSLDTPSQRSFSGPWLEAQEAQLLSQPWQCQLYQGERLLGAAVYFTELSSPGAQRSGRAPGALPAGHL
# PROCEDURE_SUMMARY: Fab phage display selection; periplasmic extracts screened by ELISA or flow cytometry

BINDER	binding result
P13A06 Fab (Fab, V domains shown, Murine Fab, periplasmic extract) VH: QVQLKQSGAELVKPGASVKLSCTASGFNIKDTYMYWVKQRPEQGLEWIGRIDPANGNTKYDPKFQGKATITADTSSNTVYLQLSSLTSEDTAVFYCVIYSYRYDVGGFDYWGQGTTLTVS VL: ENVLTQSPALMAASPGEKVTITCSVSSSISSSNLHWYQQKSGTSPKLWIYGTSNLASGVPVRFSGSGSGTSYSLTISSMEAEDAATYYCQQWSSYPHTFGGGTKLEIK	binds
P13C10 Fab (Fab, V domains shown, Murine Fab, periplasmic extract) VH: QVQLQQSGAELVKPGASVELSCTASGFNIRDTYMYWVKQRPEQGLEWIGRIDPANGNTKFDPKFQDRATMTADTSSNTAYLQLSSLTSEDTAVYYCTTYFYRYDVGGFDYWGQGTTLTVS VL: ENVLTQSPALMAASPGEKVTITCSVSSSISSSNLHWFQQKSGTSPKLWIYGTSNLASGVPVRFSGSGSGTSYSLTISSMEAEDAATYYCQQWSSYPFTFGSGTKLEIK	binds
P13B11 Fab (Fab, V domains shown, Murine Fab, periplasmic extract) VH: QVQLQQPGAELVKPGASVKLSCTASGFNIKDNYMDWVKQRPEQGLEWIGKIDPANGNTKYDPKFQGKATITADTSSNTAYLQLSSLTSEDTAVYYCATYYYRYDVGGFDYWGQGTTLTVS VL: QIVLTQSPALMAASPGEKVTITCSVSSSISSSNLHWFQQKSGTSPKLWIYGTSNLASGVPVRFSGSGSGTSYSLTISSMEAEDAATYYCQQWSSYPFTFGSGTKLEIK	binds
